Attribute: Herbicidal action against [%] STEME
# Tested on: STEME
# assay.text: Post-emergence herbicidal action against STEME
# Assay type: in vivo, Stellaria media
# recorded.conditions: application rate 80 g/ha, rated visually about 3 weeks after treatment
readout.name: Herbicidal action against [%] STEME (%)

• CCOC(=O)C1C=CC(NC(=O)C2(C(F)(F)F)CC(c3cc(F)cc(C#N)c3)=NO2)C1 (mixture of isomers) = 90
• C=CC1(C(=O)NC2C=CC(C(=O)OCC)C2)CC(c2cc(F)cc(F)c2)=NO1 (stereo not shown) = 80
• C=CC1(C(=O)NC2C=CC(C(=O)NC(C(=O)OC)C(C)C)C2)CC(c2cc(F)cc(F)c2)=NO1 (single isomer, unassigned) = 90
• CCOCCOC(=O)[C@@H]1C=C[C@H](NC(=O)[C@@]2(C(F)(F)F)CC(c3cc(F)cc(F)c3)=NO2)C1 = 80
• COC(=O)C1=CC[C@H](NC(=O)C2(C)CC(c3cc(F)cc(F)c3)=NO2)C1 (stereo partly shown) = 90
• C[C@]1(C(=O)N[C@@H]2C=C(C(=O)O)CC2)CC(c2cc(F)cc(F)c2)=NO1 = 90
• O=C(OCCCl)[C@@H]1C=C[C@H](NC(=O)C2(C(F)(F)F)CC(c3ccccc3)=NO2)C1 (stereo partly shown) = 80
